# Test Target: full-length beta-Catenin (Uniprot ID P35222) (Homo sapiens (Human)) (UniProt P35222)
# Sequence (P35222 2-781 limits assumed): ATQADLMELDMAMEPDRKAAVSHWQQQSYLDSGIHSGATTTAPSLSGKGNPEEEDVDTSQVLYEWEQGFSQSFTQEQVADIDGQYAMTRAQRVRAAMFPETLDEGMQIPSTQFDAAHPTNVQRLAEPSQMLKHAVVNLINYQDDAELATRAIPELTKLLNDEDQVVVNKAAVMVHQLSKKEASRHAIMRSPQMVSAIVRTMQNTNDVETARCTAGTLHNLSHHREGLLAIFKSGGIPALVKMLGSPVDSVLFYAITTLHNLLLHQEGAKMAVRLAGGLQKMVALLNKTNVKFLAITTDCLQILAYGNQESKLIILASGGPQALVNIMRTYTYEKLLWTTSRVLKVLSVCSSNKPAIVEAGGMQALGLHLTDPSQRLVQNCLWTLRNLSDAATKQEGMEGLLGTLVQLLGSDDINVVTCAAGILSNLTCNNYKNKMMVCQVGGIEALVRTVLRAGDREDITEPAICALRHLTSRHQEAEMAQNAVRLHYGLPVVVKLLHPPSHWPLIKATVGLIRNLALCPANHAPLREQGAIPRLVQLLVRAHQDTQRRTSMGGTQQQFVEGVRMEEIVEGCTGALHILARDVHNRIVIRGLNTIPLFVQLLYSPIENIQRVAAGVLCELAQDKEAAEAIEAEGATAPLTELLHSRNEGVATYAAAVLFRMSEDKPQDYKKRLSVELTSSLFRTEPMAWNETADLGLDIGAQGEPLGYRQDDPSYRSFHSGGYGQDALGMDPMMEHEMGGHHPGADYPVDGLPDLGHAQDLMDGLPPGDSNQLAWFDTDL
# Test Method Notes: fluorescence polarization competition; 10 nM full-length beta-catenin, 10 nM 5FAM-TCF4(10-53) as competitor probe
Starred links: 1 amine or outer side, 2 acyl side, 3 side chain; linkers in the order of their positions; H or OH if unused. Positions of bridges follow the written chain, without caps; N, C: chain ends. Non-standard residues stand in square brackets, D forms with d. Primed or numbered codes have the meaning given here. PyrS2″ = (S)-3-amino-1-((pent-4-en-1-yloxy)carbonyl)pyrrolidine-3-carboxylic acid (stapling residue), C=CCCCOC(=O)N1CC[C@@](N[*:1])(C(=O)[*:2])C1; B5(4) = 2,2-bis(4-pentenyl)glycine = 2-amino-2-(pent-4-en-1-yl)hept-6-enoic acid (stitching residue), C=CCCCC(CCCC=C)(N[*:1])C(=O)[*:2]; B5(5) = 2,2-bis(4-pentenyl)glycine, 2-amino-2-(pent-4-en-1-yl)hept-6-enoic acid (stitching residue), C=CCCCC(CCCC=C)(N[*:1])C(=O)[*:2]; B5(3) = 2,2-bis(4-pentenyl)glycine (stitching residue), C=CCCCC(CCCC=C)(N[*:1])C(=O)[*:2]; Phe(3-COOH) = N[C@@H](Cc1cccc(C(=O)O)c1)C(=O)O; Phe(2-CF3) = N[C@@H](Cc1ccccc1C(F)(F)F)C(=O)O; Phe(2-Cl) = N[C@@H](Cc1ccccc1Cl)C(=O)O; Met(O2) = CS(=O)(=O)CC[C@H](N)C(=O)O; Bta = N[C@@H](Cc1csc2ccccc12)C(=O)O; Lys(iPr) = CC(C)NCCCC[C@H](N)C(=O)O; αAllylPro = C=CC[C@@]1(C(=O)O)CCCN1; tBuAla = CC(C)(C)C[C@H](N)C(=O)O; 3Thi = N[C@@H](Cc1ccsc1)C(=O)O; Cha = N[C@@H](CC1CCCCC1)C(=O)O; hSer = N[C@@H](CCO)C(=O)O
Property Name: IC50 (nM)

Known results for binders:
• Ac-[αAllylPro]N[Cha][B5(4)]DQ[Lys(iPr)]AFN[PyrS2″]F[Bta]A-NH2 (staple 1-4, 4-11) [I-2065] = 144
• Ac-[αAllylPro]N[Cha][B5(4)]DQQAFN[PyrS2″]F[Bta][hSer]-NH2 (staple 1-4, 4-11) [I-2067] = 180
• Ac-[αAllylPro]N[Cha][B5(5)]DQHAFN[PyrS2″]F[Bta][hSer]-NH2 (staple 1-4, 4-11) [I-2066] = 357
• Ac-[αAllylPro]D[tBuAla][B5(3)]D[Phe(3-COOH)]TAFL[PyrS2″][3Thi][Bta]A-NH2 (staple 1-4, 4-11) [I-2051] = 16
• Ac-[αAllylPro]N[Cha][B5(4)]DQHAFN[PyrS2″]F[Bta]A-NH2 (staple 1-4, 4-11) [I-2069] = 256
• Ac-[αAllylPro]D[tBuAla][B5(4)]D[Phe(3-COOH)]QAFL[PyrS2″][3Thi][Bta]L-NH2 (staple 1-4, 4-11) [I-2056] = 16
• Ac-[αAllylPro]D[tBuAla][B5(4)]D[Phe(3-COOH)]AAFL[PyrS2″][Phe(2-CF3)][Bta][Met(O2)]-NH2 (staple 1-4, 4-11) [I-2063] = 56

a = Ac-[αAllylPro]D[tBuAla][B5(3)]D[Phe(3-COOH)]QAFF[PyrS2″][3Thi][Bta]A-NH2 (staple 1-4, 4-11) [I-2052]
b = Ac-[αAllylPro]D[tBuAla][B5(4)]D[Phe(3-COOH)]AAFL[PyrS2″][Phe(2-Cl)][Bta][Met(O2)]-NH2 (staple 1-4, 4-11) [I-2062]
Q: Looking at recorded values for IC50, does a or b come in lower? Provide the label of your selected option as the answer.
Result: a
(a: 12 nM, b: 41 nM)
